Entries annotated with measured Plant response rating, Wheat, Winter
System: winter wheat (Triticum aestivum)
Assay: Test C pre-/postemergence plant response
Format: in vivo
Settings: Preemergence, 16 g ai/ha; scale 0 to 100 (0 no effect, 100 complete control)

Worked set:
# Molecule, Assay readout, Assay result
rows = [
    ("Cc1cc(-c2ccc(Cl)cc2)nn1-c1c(OC(=O)CC(C)C)cnn(C)c1=O [Compound 37]", "Plant response rating, Wheat, Winter", 15),
    ("CCCc1cc(-c2ccc(Cl)cc2)nn1-c1c(O)cnn(C)c1=O [Compound 43]", "Plant response rating, Wheat, Winter", 0),
    ("Cc1cc(-c2ccc(Cl)cc2)nn1-c1c(OC(=O)c2cccs2)cnn(C)c1=O [Compound 52]", "Plant response rating, Wheat, Winter", 0),
]

Query Cc1cc(-c2ccc(Cl)cc2)nn1-c1c(OS(=O)(=O)c2cccc3ccccc23)cnn(C)c1=O [Compound 47] yields Plant response rating, Wheat, Winter of 20

###

System: spring barley (Hordeum vulgare)
Experiment: Test C pre-/postemergence plant response
Assay type: in vivo
Conditions: Preemergence, 62 g ai/ha; scale 0 to 100, 0 no effect, 100 complete control
Assay readout: Plant response rating, Barley, Spring
Quick one: just the number, no unit, thanks!

# Cpd smiles, Assay result
rows = [
    ("Cc1cc(-c2ccc(Cl)cc2)nn1-c1c(OS(=O)(=O)c2cccc3ccccc23)cnn(C)c1=O", 75),
    ("Cc1cc(-c2ccc(Cl)cc2)nn1-c1c(OC(=O)Oc2ccccc2)cnn(C)c1=O", 70),
    ("Cc1cc(-c2ccc(Cl)cc2)nn1-c1c(OC(=O)CC(C)C)cnn(C)c1=O", 40),
]

Please find the next compound below.
Query Cc1cc(-c2ccc(Cl)cc2)nn1-c1c(OC(=O)c2cccc(Cl)c2)cnn(C)c1=O yields Plant response rating, Barley, Spring of 75

###

Tested on: spring wheat (Triticum aestivum)
Experiment: Test C pre-/postemergence plant response
Assay type: in vivo
Details: Preemergence, 62 g ai/ha; scale 0 to 100, 0 no effect, 100 complete control
Assay readout: Plant response rating, Wheat, Spring
Quick one: just the number, no unit, thanks!

Worked set:
# Molecule, Assay result
rows = [
    ("Cc1cc(-c2ccc(Cl)cc2)nn1-c1c(OC(=O)CC(C)C)cnn(C)c1=O [Compound 37]", 98),
    ("Cc1cc(-c2ccc(Cl)cc2)nn1-c1c(OS(=O)(=O)c2cccc3ccccc23)cnn(C)c1=O [Compound 47]", 65),
    ("Cc1cc(-c2ccc(Cl)cc2)nn1-c1c(OS(=O)(=O)c2ccc(Cl)s2)cnn(C)c1=O [Compound 55]", 60),
]

Please find the next molecule below.
Query Cc1cc(-c2ccc(Cl)cc2)nn1-c1c(OS(=O)(=O)c2ccccc2)cnn(C)c1=O [Compound 35] yields Plant response rating, Wheat, Spring of 65

###

Tested on: winter barley (Hordeum vulgare)
Assay: Test B postemergence plant response
Type: in vivo
Details: Postemergence, 31 g ai/ha; scale 0 to 100, 0 no effect, 100 complete control
Entries annotated with measured Plant response rating, Barley
Quick one: just the number, no unit, thanks!

# Cpd smiles, Target system, Assay result
data = [
    ("Cc1nn(C)c(=O)c(-n2nc(-c3ccc(Cl)cc3)cc2C)c1O", "winter barley (Hordeum vulgare)", 10),
    ("Cc1cc(-c2ccc(Cl)cc2)nn1-c1c(OC(=O)CC(C)C)cnn(C)c1=O", "winter barley (Hordeum vulgare)", 5),
    ("Cc1cc(-c2ccc(Cl)cc2)nn1-c1c(OC(=O)c2cccs2)cnn(C)c1=O", "winter barley (Hordeum vulgare)", 0),
    ("CCCc1cc(-c2ccc(C(F)(F)F)cc2)nn1-c1c(O)cnn(C)c1=O", "winter barley (Hordeum vulgare)", 0),
]

The compound CCc1c(C)c(-c2ccc(Br)cc2)nn1-c1c(O)cnn(C)c1=O , tested on winter barley (Hordeum vulgare), showed Plant response rating, Barley of 45

###

System: windgrass (Apera spica-venti)
Test: Test B postemergence plant response
Type: in vivo
Details: 8 g ai/ha, postemergence; 0-100 scale
Assay readout: Windgrass plant response rating
Quick one: just the number, no unit, thanks!

Worked set:
# Cpd smiles, Target system, Assay result
measured = [
    ("CCc1cc(-c2ccc(Br)cc2)nn1-c1c(O)c(C)nn(C)c1=O", "windgrass (Apera spica-venti)", 85),
    ("CCc1cc(-c2ccc(Br)cc2)nn1-c1c(O)cnn(CC(F)(F)F)c1=O", "windgrass (Apera spica-venti)", 50),
    ("Cn1ncc(O)c(-n2nc(-c3ccc(Cl)cc3)cc2C2CC2)c1=O", "windgrass (Apera spica-venti)", 30),
    ("Cc1cc(-c2ccc(Cl)cc2)nn1-c1c(OC(=O)c2cccc(Cl)c2)cnn(C)c1=O", "windgrass (Apera spica-venti)", 0),
    ("Cc1cc(-c2ccc(Cl)cc2)nn1-c1c(OC(=O)CC(C)C)cnn(C)c1=O", "windgrass (Apera spica-venti)", 10),
]

Please find the next compound below.
The compound CCCc1cc(-c2ccc(C(F)(F)F)cc2)nn1-c1c(O)cnn(C)c1=O , tested on windgrass (Apera spica-venti), showed Windgrass plant response rating of 85

###

Entries annotated with measured Plant response rating, Lambsquarters
Tested on: lambsquarters (Chenopodium album)
Test: Test B pre-/postemergence plant response
Format: in vivo
Settings: Preemergence, 16 g ai/ha; scale 0 to 100 (0 no effect, 100 complete control)
Quick one: just the number, no unit, thanks!

Query Cc1cc(-c2ccc(Cl)cc2)nn1-c1c(OC(=O)c2ccccc2Cl)cnn(C)c1=O yields Plant response rating, Lambsquarters of 0

###

Tested on: Italian ryegrass (Lolium multiflorum)
Test: Test B pre-/postemergence plant response
Assay type: in vivo
Conditions: Preemergence, 31 g ai/ha; scale 0 to 100 (0 no effect, 100 complete control)
Entries annotated with measured Plant response rating, Ryegrass, Italian

Worked set:
# Compound, Plant response rating, Ryegrass, Italian
rows = [
    ("Cn1ncc(O)c(-n2nc(-c3ccc(Cl)cc3)cc2C2CC2)c1=O [Compound 45]", 100),
    ("Cc1ccc(-c2ccc(Cl)cc2)cc1-c1c(O)cnn(C)c1=O [Compound 46]", 40),
    ("Cc1cc(-c2ccc(Cl)cc2)nn1-c1c(OS(=O)(=O)C(C)C)cnn(C)c1=O [Compound 50]", 5),
    ("Cc1cc(-c2ccc(C(F)(F)F)c(F)c2)nn1-c1c(O)c(C(F)(F)F)nn(C)c1=O [Compound 44]", 90),
]

Query CCOC(=O)Oc1cnn(C)c(=O)c1-n1nc(-c2ccc(Cl)cc2)cc1C [Compound 53] yields Plant response rating, Ryegrass, Italian of 100

Query COc1nn(C)c(=O)c(-n2nc(-c3ccc(Br)cc3)cc2C)c1O [Compound 82] yields Plant response rating, Ryegrass, Italian of 100

###

System: wheat (Triticum aestivum)
Assay: Test A pre-/postemergence plant response
Format: in vivo
Settings: Preemergence, 31 g ai/ha; 0 to 100 scale, 0 is no effect, 100 is complete control
Assay readout: Plant response rating, Wheat
Quick one: just the number, no unit, thanks!

Worked set:
# Cpd smiles, Plant response rating, Wheat
data = [
    ("CCc1cc(-c2ccc(C(F)(F)F)cc2)nn1-c1c(O)c(OC)nn(C)c1=O", 60),
    ("CCOC(=O)Oc1cnn(C)c(=O)c1-n1nc(-c2ccc(Cl)cc2)cc1C", 50),
    ("CCCc1cc(-c2ccc(Cl)cc2)nn1-c1c(O)cnn(C)c1=O", 20),
]

Query Cc1cc(-c2ccc(Cl)cc2)nn1-c1c(OC(=O)c2cccs2)cnn(C)c1=O yields Plant response rating, Wheat of 10

###

Test system: corn (Zea mays)
Assay: Test B pre-/postemergence plant response
Assay type: in vivo
Settings: Postemergence, 16 g ai/ha; scale 0 to 100
Entries annotated with measured Plant response rating, Corn
Quick one: just the number, no unit, thanks!

Worked set:
# Compound, Target system, Plant response rating, Corn
rows = [
    ("CCc1cc(-c2ccc(Br)cc2)nn1-c1c(O)c(C)nn(C)c1=O", "corn (Zea mays)", 100),
    ("CCCc1cc(-c2ccc(Cl)cc2)nn1-c1c(O)cnn(C)c1=O [Compound 43]", "corn (Zea mays)", 85),
    ("CCc1cc(-c2ccc(Cl)cc2)nn1-c1c(O)cnn(C)c1=O", "corn (Zea mays)", 100),
    ("Cc1cc(-c2ccc(Cl)cc2)nn1-c1c(OS(=O)(=O)c2ccccc2)cnn(C)c1=O", "corn (Zea mays)", 90),
    ("CCCc1cc(-c2ccc(Cl)cc2)nn1-c1c(O)cnn(C)c1=O [Compound 76]", "corn (Zea mays)", 85),
]

The compound Cc1nn(C)c(=O)c(-n2nc(-c3ccc(Cl)cc3)cc2Cl)c1O , tested on corn (Zea mays), showed Plant response rating, Corn of 85

The compound CCCC(=O)Oc1cnn(C)c(=O)c1-n1nc(-c2ccc(Cl)cc2)cc1C , tested on corn (Zea mays), showed Plant response rating, Corn of 85
